- STUDY_TARGET: recombinant human Bcl-2 D103Y protein (Homo sapiens (Human), UniProt P10415, D103Y)
- Sequence (P10415 whole entry D103Y): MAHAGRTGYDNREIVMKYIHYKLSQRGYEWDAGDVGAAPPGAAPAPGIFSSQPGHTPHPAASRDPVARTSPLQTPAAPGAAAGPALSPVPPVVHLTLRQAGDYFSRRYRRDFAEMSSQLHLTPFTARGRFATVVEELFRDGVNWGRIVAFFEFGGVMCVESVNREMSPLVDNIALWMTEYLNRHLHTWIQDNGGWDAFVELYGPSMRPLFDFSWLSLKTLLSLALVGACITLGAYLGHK
- TEST_METHOD_NOTES: Bcl-2-D103Y Biochemical Assay (TR-FRET)
- MEASUREMENT_CONTEXT: TR-FRET, FITC labeled Bak peptide
METRIC: log10(IC50) (log10 of the value in nM)
Reminder: these figures are log10 of reported IC50, in nM before transformation.

{"COMPOUND": "CC(C)c1ccccc1C1CN(Cc2cc(F)cc(F)c2)CCN1C1CC2(CCN(c3ccc(C(=O)NS(=O)(=O)c4ccc(NC[C@H]5CC[C@](C)(O)CC5)c([N+](=O)[O-])c4)c(Oc4cnc5[nH]ccc5c4)c3)CC2)C1 (some centres unmarked)", "log10(IC50)": 0.18}
{"COMPOUND": "CC(C)c1ccccc1C1CN(Cc2ccc(Cl)cc2)CCN1C1CC2(CCN(c3ccc(C(=O)NS(=O)(=O)c4ccc(NC[C@H]5CC[C@](C)(O)CC5)c([N+](=O)[O-])c4)c(Oc4cnc5[nH]ccc5c4)c3)CC2)C1 (some centres unmarked)", "log10(IC50)": -0.24}
{"COMPOUND": "COc1ccc(CN2CCN(C3CC4(C3)CN(c3ccc(C(=O)NS(=O)(=O)c5ccc(NC[C@H]6CC[C@](C)(O)CC6)c([N+](=O)[O-])c5)c(Oc5cnc6[nH]cc(Cl)c6c5)c3)C4)[C@H](c3ccccc3C(C)C)C2)cc1OC", "log10(IC50)": -0.92}
{"COMPOUND": "CC(C)c1ccccc1C1CN(C2COC2)CCN1C1CC2(CCN(c3ccc(C(=O)NS(=O)(=O)c4ccc(NC[C@H]5CC[C@](C)(O)CC5)c([N+](=O)[O-])c4)c(Oc4cnc5[nH]ccc5c4)c3)CC2)C1 (single isomer, unassigned) [Example 6a]", "log10(IC50)": -0.96}

# next compound below
# log10(IC50) of `COc1cc(CN2CCN(C3CC4(C3)CN(c3ccc(C(=O)NS(=O)(=O)c5ccc(NC[C@H]6CC[C@](C)(O)CC6)c([N+](=O)[O-])c5)c(Oc5cnc6[nH]ccc6c5)c3)C4)[C@H](c3ccccc3C(C)C)C2)ccc1C` = -0.68

---

- STUDY_TARGET: recombinant human Bcl-2 D103Y protein (Homo sapiens (Human), UniProt P10415, D103Y)
- TEST_METHOD_NOTES: Bcl-2-D103Y Biochemical Assay (TR-FRET)
- Assay type: binding
- MEASUREMENT_CONTEXT: TR-FRET, FITC labeled Bak peptide
Reported log10 of IC50 values follow for various compounds
Reminder: these figures are log10 of reported IC50, in nM before transformation.

Below are worked cases with known answers.
{"COMPOUND": "CC(C)c1ccccc1[C@@H]1CN(Cc2ccc(OC3CC3)cc2)CCN1C1CC2(C1)CN(c1ccc(C(=O)NS(=O)(=O)c3ccc(NC[C@H]4CC[C@](C)(O)CC4)c([N+](=O)[O-])c3)c(Oc3cnc4[nH]cc(F)c4c3)c1)C2 [Example 365]", "QUANTITATIVE_RESULT": -0.29}
{"COMPOUND": "COc1cccc(CN2CCN(C3CC4(CCN(c5ccc(C(=O)NS(=O)(=O)c6cc7c(c([N+](=O)[O-])c6)N[C@H](C[C@H]6CC[C@H](O)CC6)CO7)c(Oc6cnc7[nH]ccc7c6)c5)CC4)C3)C(c3ccccc3C(C)C)C2)c1 (some centres unmarked) [Example 45]", "QUANTITATIVE_RESULT": -0.27}
{"COMPOUND": "COc1cc(CN2CCN(C3CC4(CCN(c5ccc(C(=O)NS(=O)(=O)c6ccc(NC[C@H]7CC[C@](C)(O)CC7)c([N+](=O)[O-])c6)c(Oc6cnc7[nH]cc(F)c7c6)c5)CC4)C3)[C@H](c3ccccc3C(C)C)C2)cc2c1OCCC2 [Example 299]", "QUANTITATIVE_RESULT": -0.89}
{"COMPOUND": "CC(C)c1ccccc1C1CN(C(C)c2ccccc2)CCN1C1CC2(CCN(c3ccc(C(=O)NS(=O)(=O)c4ccc(NC[C@H]5CC[C@](C)(O)CC5)c([N+](=O)[O-])c4)c(Oc4cnc5[nH]ccc5c4)c3)CC2)C1 (single isomer, unassigned) [Example 24b]", "QUANTITATIVE_RESULT": -0.25}
{"COMPOUND": "COc1ccc(CN2CCN(C3CC4(CCN(c5ccc(C(=O)NS(=O)(=O)c6ccc(NC[C@H]7CC[C@](C)(O)CC7)c([N+](=O)[O-])c6)c(Oc6cnc7[nH]cc(Cl)c7c6)c5)CC4)C3)[C@H](c3ccccc3C(C)C)C2)cc1 [Example 123]", "QUANTITATIVE_RESULT": -0.15}
{"COMPOUND": "COc1ccc(CN2CCN(C3CC4(CCN(c5ccc(C(=O)NS(=O)(=O)c6ccc(NC[C@H]7CC[C@](C)(O)CC7)c([N+](=O)[O-])c6)c(Oc6cnc7[nH]ccc7c6)c5)CC4)C3)[C@@H](c3ccccc3C(C)C)C2)cc1 [Example 19b]", "QUANTITATIVE_RESULT": 1.20}

# log10 of IC50 of COc1ccc(CN2CCN(C3CC4(C3)CN(c3ccc(C(=O)NS(=O)(=O)c5ccc(NC[C@H]6CC[C@](C)(O)CC6)c([N+](=O)[O-])c5)c(Oc5cnc6[nH]cc(Cl)c6c5)c3)C4)[C@H](c3ccccc3C(C)C)C2)cc1 [Example 207] = -0.66

# log10 of IC50 of COc1cc(CN2CCN(C3CC4(C3)CN(c3ccc(C(=O)NS(=O)(=O)c5ccc(NC[C@H]6CC[C@](C)(O)CC6)c([N+](=O)[O-])c5)c(Oc5cnc6[nH]cc(F)c6c5)c3)C4)[C@H](c3ccccc3C(C)C)C2)cc2c1OCCCC2 [Example 347] = -0.55

---

- Test system: RS4;11 (BCL-2 dependent acute lymphoblastic leukemia cell line)
- TEST_METHOD_NOTES: RS4;11 Cell Proliferation Assay
- Assay type: cell-based
- MEASUREMENT_CONTEXT: Homo sapiens, RS4-11, RS4;11 cells, read-out: Cellular proliferation assay (IC50, nM) RS4
METRIC: IC50 (nM)
// units = nM; emit number, no label

{"COMPOUND": "CC(C)c1ccccc1C1CN(Cc2ccc(C#N)cc2)CCN1C1CC2(CCN(c3ccc(C(=O)NS(=O)(=O)c4ccc(NC[C@H]5CC[C@](C)(O)CC5)c([N+](=O)[O-])c4)c(Oc4cnc5[nH]ccc5c4)c3)CC2)C1 (stereo partly shown) [Example 42]", "METRIC": "IC50", "QUANTITATIVE_RESULT": 1.8}
{"COMPOUND": "COc1cc(CN2CCN(C3CC4(C3)CN(c3ccc(C(=O)NS(=O)(=O)c5ccc(NC[C@H]6CC[C@](C)(O)CC6)c([N+](=O)[O-])c5)c(Oc5cnc6[nH]ccc6c5)c3)C4)[C@H](c3ccccc3C(C)C)C2)ccc1C [Example 275]", "METRIC": "IC50", "QUANTITATIVE_RESULT": 0.14}
{"COMPOUND": "COc1cc(CN2CCN(C3CC4(C3)CN(c3ccc(C(=O)NS(=O)(=O)c5ccc(NC[C@H]6CC[C@](C)(O)CC6)c([N+](=O)[O-])c5)c(Oc5cnc6[nH]cc(F)c6c5)c3)C4)[C@H](c3ccccc3C(C)C)C2)ccc1OC1CCC1 [Example 350]", "METRIC": "IC50", "QUANTITATIVE_RESULT": 0.23}

# IC50 of COc1cc(CN2CCN(C3CC4(C3)CN(c3ccc(C(=O)NS(=O)(=O)c5ccc(NC[C@H]6CC[C@](C)(O)CC6)c([N+](=O)[O-])c5)c(Oc5cnc6[nH]ccc6c5)c3)C4)[C@H](c3ccccc3C(C)C)C2)ccc1OC1CC1 [Example 343] = 0.11

# IC50 of COc1cc(CN2CCN(C3CC4(CCN(c5ccc(C(=O)NS(=O)(=O)c6ccc(NC[C@H]7CC[C@](C)(O)CC7)c([N+](=O)[O-])c6)c(Oc6cnc7[nH]cc(F)c7c6)c5)CC4)C3)[C@H](c3ccccc3C(C)C)C2)cc2c1OCCC2 [Example 299] = 0.27

# IC50 of CC(C)c1ccccc1C1CN(Cc2cccc3ccoc23)CCN1C1CC2(CCN(c3ccc(C(=O)NS(=O)(=O)c4ccc(NC[C@H]5CC[C@](C)(O)CC5)c([N+](=O)[O-])c4)c(Oc4cnc5[nH]ccc5c4)c3)CC2)C1 (stereo partly shown) [Example 137] = 0.89

# IC50 of CC(C)c1ccccc1[C@@H]1CN(Cc2ccc(N3CCOCC3)cc2)CCN1C1CC2(C1)CN(c1ccc(C(=O)NS(=O)(=O)c3ccc(NC[C@H]4CC[C@](C)(O)CC4)c([N+](=O)[O-])c3)c(Oc3cnc4[nH]cc(F)c4c3)c1)C2 [Example 368] = 0.096

# IC50 of COc1cc(CN2CCN(C3CC4(C3)CN(c3ccc(C(=O)NS(=O)(=O)c5ccc(NC[C@H]6CC[C@](C)(O)CC6)c([N+](=O)[O-])c5)c(Oc5cnc6[nH]ccc6c5)c3)C4)[C@H](c3ccccc3C(C)C)C2)cc2c1OCCC2(C)C [Example 334] = 0.17

# IC50 of COc1ccc(CN2CCN(C3CC4(C3)CN(c3ccc(C(=O)NS(=O)(=O)c5ccc(NC[C@H]6CC[C@](C)(O)CC6)c([N+](=O)[O-])c5)c(Oc5cnc6[nH]ccc6c5)c3)C4)[C@H](c3ccccc3C(C)C)C2)cn1 [Example 254] = 0.09

# IC50 of COc1cc(CN2CCN(C3CC4(C3)CN(c3ccc(C(=O)NS(=O)(=O)c5ccc(NC[C@H]6CC[C@](C)(O)CC6)c([N+](=O)[O-])c5)c(Oc5cnc6[nH]ccc6c5)c3)C4)[C@H](c3ccccc3C(C)C)C2)cc2cc(C)oc12 [Example 339] = 0.19
